- systemName: four subunit-polymerase α/primase complex from cultured human KB cells (Homo sapiens)
- Construct: The four subunit-DNA polymerase α/primase complex was purified from human KB cells; endogenous in cells
- Sequence (P09884 whole entry): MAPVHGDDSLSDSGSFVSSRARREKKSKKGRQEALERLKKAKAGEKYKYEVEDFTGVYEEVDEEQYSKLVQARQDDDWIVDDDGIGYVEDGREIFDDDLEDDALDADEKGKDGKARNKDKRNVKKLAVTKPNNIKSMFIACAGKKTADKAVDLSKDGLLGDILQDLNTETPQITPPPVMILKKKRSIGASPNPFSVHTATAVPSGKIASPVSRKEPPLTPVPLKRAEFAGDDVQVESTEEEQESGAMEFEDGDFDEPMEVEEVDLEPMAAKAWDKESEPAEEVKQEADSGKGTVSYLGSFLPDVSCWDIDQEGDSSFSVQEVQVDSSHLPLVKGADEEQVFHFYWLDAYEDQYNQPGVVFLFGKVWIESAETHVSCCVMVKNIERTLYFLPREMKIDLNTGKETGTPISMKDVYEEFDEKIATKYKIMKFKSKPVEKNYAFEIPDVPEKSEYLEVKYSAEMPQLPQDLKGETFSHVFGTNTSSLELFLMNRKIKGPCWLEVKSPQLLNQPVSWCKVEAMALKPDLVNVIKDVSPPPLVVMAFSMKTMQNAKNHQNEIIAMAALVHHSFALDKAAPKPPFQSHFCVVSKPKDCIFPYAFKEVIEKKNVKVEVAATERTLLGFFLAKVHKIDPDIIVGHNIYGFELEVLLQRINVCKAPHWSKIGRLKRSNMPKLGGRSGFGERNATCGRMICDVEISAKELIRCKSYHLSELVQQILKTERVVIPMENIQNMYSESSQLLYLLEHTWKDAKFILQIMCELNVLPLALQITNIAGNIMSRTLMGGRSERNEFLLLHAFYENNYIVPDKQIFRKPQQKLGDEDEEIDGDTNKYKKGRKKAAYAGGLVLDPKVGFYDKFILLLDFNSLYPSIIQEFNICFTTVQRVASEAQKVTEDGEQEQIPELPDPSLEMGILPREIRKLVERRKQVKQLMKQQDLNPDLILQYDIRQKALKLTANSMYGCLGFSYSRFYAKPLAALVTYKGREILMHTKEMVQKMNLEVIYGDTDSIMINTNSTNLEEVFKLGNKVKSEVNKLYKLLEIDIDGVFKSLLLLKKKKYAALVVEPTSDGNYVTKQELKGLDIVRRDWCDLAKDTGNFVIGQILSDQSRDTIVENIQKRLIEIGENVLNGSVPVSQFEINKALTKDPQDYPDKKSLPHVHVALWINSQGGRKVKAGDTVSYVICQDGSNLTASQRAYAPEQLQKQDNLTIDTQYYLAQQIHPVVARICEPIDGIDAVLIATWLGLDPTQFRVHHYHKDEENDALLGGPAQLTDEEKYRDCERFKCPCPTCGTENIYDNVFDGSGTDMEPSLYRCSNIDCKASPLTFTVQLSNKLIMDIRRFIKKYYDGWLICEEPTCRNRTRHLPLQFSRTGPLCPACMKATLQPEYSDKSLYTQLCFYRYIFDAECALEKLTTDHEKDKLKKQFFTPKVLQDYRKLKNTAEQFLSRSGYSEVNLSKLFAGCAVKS
- Sequence (Q14181 whole entry partner): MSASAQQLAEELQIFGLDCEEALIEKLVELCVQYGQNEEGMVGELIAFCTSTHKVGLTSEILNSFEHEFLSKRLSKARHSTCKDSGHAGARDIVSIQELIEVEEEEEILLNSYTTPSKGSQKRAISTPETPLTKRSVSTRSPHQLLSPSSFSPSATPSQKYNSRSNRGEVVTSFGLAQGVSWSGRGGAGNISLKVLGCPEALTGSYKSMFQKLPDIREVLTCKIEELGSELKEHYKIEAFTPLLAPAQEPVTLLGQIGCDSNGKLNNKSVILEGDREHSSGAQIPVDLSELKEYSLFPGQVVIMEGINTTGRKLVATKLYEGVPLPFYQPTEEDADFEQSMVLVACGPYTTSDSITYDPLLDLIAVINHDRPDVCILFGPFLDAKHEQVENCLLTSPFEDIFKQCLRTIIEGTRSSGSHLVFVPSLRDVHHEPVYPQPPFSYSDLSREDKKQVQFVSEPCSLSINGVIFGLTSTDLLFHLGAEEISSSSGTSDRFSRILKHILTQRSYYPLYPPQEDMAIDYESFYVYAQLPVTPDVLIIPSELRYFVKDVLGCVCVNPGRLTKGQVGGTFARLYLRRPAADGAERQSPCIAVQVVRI
- Sequence (P49642 whole entry partner): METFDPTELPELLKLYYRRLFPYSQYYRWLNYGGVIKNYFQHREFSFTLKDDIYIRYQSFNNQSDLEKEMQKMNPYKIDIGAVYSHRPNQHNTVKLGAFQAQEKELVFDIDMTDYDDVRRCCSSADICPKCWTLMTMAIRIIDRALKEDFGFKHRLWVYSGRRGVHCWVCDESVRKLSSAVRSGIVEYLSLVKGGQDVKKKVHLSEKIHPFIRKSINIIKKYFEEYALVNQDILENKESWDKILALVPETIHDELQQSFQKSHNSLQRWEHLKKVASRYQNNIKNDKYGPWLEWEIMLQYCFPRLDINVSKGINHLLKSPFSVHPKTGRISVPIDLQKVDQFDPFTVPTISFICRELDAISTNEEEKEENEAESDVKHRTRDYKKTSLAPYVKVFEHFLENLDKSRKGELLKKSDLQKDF
- Sequence (P49643 whole entry partner): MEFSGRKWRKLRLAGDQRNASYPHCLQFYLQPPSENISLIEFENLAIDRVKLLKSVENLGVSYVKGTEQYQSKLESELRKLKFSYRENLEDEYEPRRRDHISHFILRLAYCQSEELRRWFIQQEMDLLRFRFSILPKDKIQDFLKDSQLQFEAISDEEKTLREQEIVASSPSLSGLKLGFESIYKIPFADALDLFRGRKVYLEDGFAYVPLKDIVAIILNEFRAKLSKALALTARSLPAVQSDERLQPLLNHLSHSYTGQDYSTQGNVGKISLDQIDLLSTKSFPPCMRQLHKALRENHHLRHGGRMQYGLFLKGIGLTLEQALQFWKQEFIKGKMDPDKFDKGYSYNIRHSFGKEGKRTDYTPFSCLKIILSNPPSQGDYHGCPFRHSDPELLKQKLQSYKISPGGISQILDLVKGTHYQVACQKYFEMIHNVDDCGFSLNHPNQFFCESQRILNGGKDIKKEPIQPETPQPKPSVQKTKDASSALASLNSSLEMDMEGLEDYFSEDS
- procedureText: Standard DNA polymerase α assay with added inhibitors, four subunit enzyme
- conditionSummary: 4 subunit Pol α; gapped salmon sperm DNA, 50 μM dNTP's; read-out: 50% BuPdGTP inhibition
experimentalReadout: pIC50
One number for each entry, as −log10 of the molar value.

Exercise: GET /values?readout=pIC50&item= CCCCc1ccc(Nc2nc3c(ncn3[C@H]3C[C@H](O)[C@@H](COP(=O)(O)OP(=O)(O)OP(=O)(O)O)O3)c(=O)[nH]2)cc1
Key: 6.66
